Source listed as patent US10703764B2.

IC50 values, listed per item
# targetOrTestSystem: BRD4 BD1 (Homo sapiens, UniProt O60885)
# protocolText: AlphaScreen binding assay, BRD4 Bromodomain 1

Worked examples, 3 compounds total:
compound | IC50
CC(=O)N1c2ccc(-c3cccc4cnn(C)c34)cc2N(C(=O)c2ccco2)C[C@@H]1C [Example I-842] | > 10 µM
CC(=O)N1c2ccc(-c3cccc(-c4ccco4)c3)cc2N(C(=O)c2ccco2)C[C@@H]1C [Example I-855] | 1 to 10 µM
COc1ccccc1C(=O)N1C[C@H](C)N(C(C)=O)c2ccccc21 [Example I-702] | > 10 µM

IC50 reported for this compound COc1cncc(-c2ccc3c(c2)N(C(=O)c2ccco2)C[C@H](C)N3C(C)=O)c1 [Example I-835] : 1 to 10 µM

Please fill in: IC50 reported for CC(=O)N1c2ccc(-c3cccc(S(C)(=O)=O)c3)cc2N(C(=O)OC(C)C)C[C@@H]1C [Example I-1053] = 1 to 10 µM

IC50 measured on CC(=O)N1c2ccc(-c3cnn(C4COC4)c3)cc2N(C(=O)OC2CCCCC2)C[C@@H]1C [Example I-86] = 0.1 to 1 µM

Quick note, IC50 for CC(=O)N1c2ccc(-c3ccc(S(C)(=O)=O)cc3)cc2N(C(=O)OCC2CC2)C[C@@H]1C [Example I-495] landed at 0.1 to 1 µM

Briefly, IC50 measured for CC(C)OC(=O)N1C[C@H](C)N(C(=O)C2CC2)c2ccc(-c3cnc(N)cn3)cc21 [Example I-472] : 0.1 to 1 µM

Form: compound = COc1ccc(C)cc1OC(=O)N1C[C@H](C)N(C(C)=O)c2ccc(-c3cnn(C4CC4)c3)cc21 [Example I-508] ; IC50 = 0.1 to 1 µM

Entry CC(=O)N1c2ccc(-c3cnn(Cc4cc(C)on4)c3)cc2N(C(=O)C2CC2)C[C@@H]1C [Example I-669] ; IC50 = 0.1 to 1 µM

For reference, reported IC50 for CC(=O)N1c2ccc(-c3ccc(S(=O)(=O)n4cccn4)cc3)cc2N(C(=O)C2CCC2)C[C@@H]1C [Example I-1116] stands at 1 to 10 µM

Kindly note the recorded IC50 for COc1ncc(C)cc1OC(=O)N1C[C@H](C)N(C(C)=O)c2ccc(-c3cnn(C4CC4)c3)cc21 [Example I-1210] , which is 1 to 10 µM

Reported IC50 for CC(=O)N1c2ccc(-c3cccc(-c4ncccn4)c3)cc2N(C(=O)c2ccco2)C[C@@H]1C [Example I-405] was 1 to 10 µM
